Reported growth values for the following compounds.
# Test system: UACC-62 melanoma
# Experimental details: NCI-60 one-dose screen, 48 h (100 = growth as untreated, 0 = no growth, -100 = all killed)
# Recorded conditions: 10 µM
# Experimental: Growth inhibition of the UACC-62 human tumor cell line is measured as a screen for anti-cancer activity. Cells are grown in 96 well plates and exposed to the test compound for 48 hours. Compounds are tested at a single concentration, which is 10^-5 M for most compounds. The reported endpoint is percent growth (GI% or GIPRCNT), where numbers from 0 - 100% represent growth inhibition, and numbers from -100% - 0 represent cell death. For example, a value of 40 represents 60% growth inhibition. […]
The panel holds about 83,000 compounds, 20% with a hit somewhere; the sample as a whole holds those more often.

{"Compound": "COc1ccc(-c2nn(-c3cccc(Cl)c3)cc2-c2cc(-c3cccs3)[nH]c(=S)n2)cc1", "growth (%)": 44.9}
{"Compound": "COc1cc(N)c2ncccc2c1SC", "growth (%)": 110}
{"Compound": "COc1cc(C2CC(c3ccccc3)=NN2C(C)=O)cc(OC)c1OC (stereo unspecified)", "growth (%)": 44.6}
{"Compound": "O=c1c(Br)ccc(Br)cc1Br", "growth (%)": -5.1}
{"Compound": "O=C(Nc1nc(-c2ccccc2)nc2c1sc(=S)n2-c1ccccc1)C(F)(F)F", "growth (%)": 86}
{"Compound": "O=C(CCl)Nc1ccc(Cc2ccc(NC(=O)CCl)cc2)cc1", "growth (%)": -9.18}
{"Compound": "CCCCCC(=O)O[C@]1(C(C)=O)CCC2C3CCC4=CC(=O)CC[C@]4(C)C3CC[C@@]21C (stereo partly specified)", "growth (%)": 18.5}
{"Compound": "Nc1ccc(/C=N/Nc2ccnc3c(O)cccc23)c2cccnc12", "growth (%)": 95.2}
{"Compound": "COc1cc2ncnc(NC3CCC(O)CC3)c2cc1OC (stereo unspecified)", "growth (%)": 97.1}
{"Compound": "O=[N+]([O-])c1ccc(NCSc2ccc(Cl)cc2)cc1", "growth (%)": 77.8}
{"Compound": "CCOC(=O)CC(S(=O)(=O)c1ccccc1)S(=O)(=O)c1ccccc1", "growth (%)": 103}

Ref: PubChem BioAssay (NCI)
